Test: acute toxicity, single oral administration
Conditions: mouse, in vivo; acute toxicity, single oral administration to mice
Parameter: LD50

Molecule	Experimental Result
CCOC(=O)CNC(=O)CCc1cc(Cl)ccc1C(=O)CCCNC(C)=O [Example 30]	> 5000 mg/kg
CC(=O)NCCCC(=O)c1ccc(Cl)cc1CCC(=O)OC(C)C [Example 4]	> 4000 mg/kg
CCOC(=O)CC[C@H](NC(=O)CCc1cc(Cl)ccc1C(=O)CCCNC(C)=O)C(=O)OCC [Example 29]	> 5000 mg/kg
CCCOC(=O)CCc1cc(Cl)ccc1C(=O)CCCNC(C)=O [Example 3]	> 5000 mg/kg
CCOC(=O)CCc1cc(Cl)ccc1C(=O)CCCNC(C)=O [Example 2]	> 5000 mg/kg
CCOC(=O)CCc1cc(Cl)ccc1C(=O)CCCNC(=O)CCCNC(C)=O [Example 8]	> 5000 mg/kg
